Molecular target: T1, IRF4 DBD T95K (Homo sapiens, UniProt Q15306 20-132, T95K)
T1 sequence: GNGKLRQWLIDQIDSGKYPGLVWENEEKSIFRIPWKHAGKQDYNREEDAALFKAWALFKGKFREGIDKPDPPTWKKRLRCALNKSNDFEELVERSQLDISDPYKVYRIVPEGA
Assay: FP; FP: PBS + 0.05% Tween20, 5 nM DNA, 1 h, room temperature; SPR: Biacore S200, SA chip, protein 0.1-4500 nM, running buffer not given in material; errors are SD
Details: protein: recombinant; tags: N-terminal His8-linker-His8-TEV, cleaved; label: 3' fluorescein (FAM); hairpin, TTTT loop
assay readout: Kd (nM)
Respond numerically; units are nM and should not be typed.

Query: # get_value(readout='Kd', item= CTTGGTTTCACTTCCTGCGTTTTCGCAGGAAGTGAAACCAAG (structured_DNA) [IRE hairpin (FAM)] )
Reply: 298
